# Conditions Used: Crystal
Metric Name: Normal melting temperature (°C)
// return numeric value only (unit: °C, not printed)

Solved cases below.
>  <Chemical String>
O=C(O)c1ccc(C(=O)O)cc1

>  <Normal melting temperature [°C]>
430.0

$$$$
>  <Chemical String>
Cc1ccc(C(=O)O)cc1

>  <Normal melting temperature [°C]>
182.0

$$$$
>  <Chemical String>
O=C(O)c1cccc(C(=O)O)c1

>  <Normal melting temperature [°C]>
348.1

$$$$

Pending molecule:
According to the records, this molecule "O=C(O)c1ccccc1" displays Normal melting temperature of 122.4
